System: Trypanosoma cruzi
Assay: Trypanosoma cruzi phosphomannomutase and mannose-1-phosphate guanylyltransferase assay
Format: functional
Set-up: scale not given: direction of the effect not stated beside the values
Details: 10 µM
QUANTITY_MEASURED: Percent Effect (%)

- COMPOUND: "CN1CCN(CC2CC2)C(=O)c2cnc(N3CCCCC3)nc21"
  MEASUREMENT_TARGET: "Trypanosoma cruzi"
  QUANTITY_MEASURED: "Percent Effect"
  ENDPOINT_VALUE: -1.41
- COMPOUND: "Cc1[nH]ncc1C(=O)N1CCN(CC(O)C(C)(C)C)CC1 (centres undefined)"
  MEASUREMENT_TARGET: "Trypanosoma cruzi"
  QUANTITY_MEASURED: "Percent Effect"
  ENDPOINT_VALUE: 7.23
- COMPOUND: "Cn1cnc2c1C(COCC1CCOCC1)CN(C(=O)c1ccoc1)C2 (centres undefined)"
  MEASUREMENT_TARGET: "Trypanosoma cruzi"
  QUANTITY_MEASURED: "Percent Effect"
  ENDPOINT_VALUE: 1.38
- COMPOUND: "Cc1cnn(CC2CCCN2C(=O)c2cccc(CC#N)c2)c1 (centres undefined)"
  MEASUREMENT_TARGET: "Trypanosoma cruzi"
  QUANTITY_MEASURED: "Percent Effect"
  ENDPOINT_VALUE: 8.03
- COMPOUND: "O=C1COC2(COCCN(Cc3ccsc3)C2)CN1c1ccc(F)cc1 (centres undefined)"
  MEASUREMENT_TARGET: "Trypanosoma cruzi"
  QUANTITY_MEASURED: "Percent Effect"
  ENDPOINT_VALUE: -5.36
- COMPOUND: "Cc1nccn1-c1cc(CNC(=O)CCC2CCCO2)ccn1 (centres undefined)"
  MEASUREMENT_TARGET: "Trypanosoma cruzi"
  QUANTITY_MEASURED: "Percent Effect"
  ENDPOINT_VALUE: 3.08
- COMPOUND: "CC(Nc1cccc(CN2CCOC2=O)c1)C(=O)N1CCNC1=O (centres undefined)"
  MEASUREMENT_TARGET: "Trypanosoma cruzi"
  QUANTITY_MEASURED: "Percent Effect"
  ENDPOINT_VALUE: -5.16
- COMPOUND: "CC(=O)N1CC(=O)N(c2ccccc2)CC12CCN(Cc1nccs1)C2 (centres undefined)"
  MEASUREMENT_TARGET: "Trypanosoma cruzi"
  QUANTITY_MEASURED: "Percent Effect"
  ENDPOINT_VALUE: -5.02
- COMPOUND: "Cc1ncsc1C(=O)NCCSCc1cccs1"
  MEASUREMENT_TARGET: "Trypanosoma cruzi"
  QUANTITY_MEASURED: "Percent Effect"
  ENDPOINT_VALUE: 3.44
- COMPOUND: "Cc1ccc(CNC(=O)N2CCN(Cc3ccsc3)CC2)n1C"
  MEASUREMENT_TARGET: "Trypanosoma cruzi"
  QUANTITY_MEASURED: "Percent Effect"
  ENDPOINT_VALUE: -5.42
- COMPOUND: "CCC(CC)c1cc(CNC(=O)N2CCOCC2CC)on1 (centres undefined)"
  MEASUREMENT_TARGET: "Trypanosoma cruzi"
  QUANTITY_MEASURED: "Percent Effect"
  ENDPOINT_VALUE: 7.33
- COMPOUND: "CCC1CN(C(=O)c2ccc(=O)[nH]c2)CCC(=O)N1Cc1ccccc1 (centres undefined)"
  MEASUREMENT_TARGET: "Trypanosoma cruzi"
  QUANTITY_MEASURED: "Percent Effect"
  ENDPOINT_VALUE: -3.21
- COMPOUND: "CN1CCCC1CNC(=O)CCCOCc1ccccc1 (centres undefined)"
  MEASUREMENT_TARGET: "Trypanosoma cruzi"
  QUANTITY_MEASURED: "Percent Effect"
  ENDPOINT_VALUE: 2.44
- COMPOUND: "c1cn(Cc2nnc(C3CCN(C4CCOCC4)CC3)n2C2CC2)cn1"
  MEASUREMENT_TARGET: "Trypanosoma cruzi"
  QUANTITY_MEASURED: "Percent Effect"
  ENDPOINT_VALUE: -3.21
- COMPOUND: "O=S(=O)(CCCN1CCCC1Cn1cccn1)c1ccccc1 (centres undefined)"
  MEASUREMENT_TARGET: "Trypanosoma cruzi"
  QUANTITY_MEASURED: "Percent Effect"
  ENDPOINT_VALUE: -2.24
- COMPOUND: "O=C(NCCO)C1(Cc2cc(-c3ccc(F)cc3F)no2)CCOCC1"
  MEASUREMENT_TARGET: "Trypanosoma cruzi"
  QUANTITY_MEASURED: "Percent Effect"
  ENDPOINT_VALUE: 0.988
- COMPOUND: "Cc1ccc(C(=O)N2C[C@@H](OCC3CCOCC3)[C@H]3OCCC[C@H]32)o1"
  MEASUREMENT_TARGET: "Trypanosoma cruzi"
  QUANTITY_MEASURED: "Percent Effect"
  ENDPOINT_VALUE: 4.58
- COMPOUND: "CCCC(=O)N1CC[C@@H]2[C@H](CC1)N(Cc1cccnc1)CCS2(=O)=O"
  MEASUREMENT_TARGET: "Trypanosoma cruzi"
  QUANTITY_MEASURED: "Percent Effect"
  ENDPOINT_VALUE: -0.586
- COMPOUND: "CC(C)c1n[nH]c(C(=O)Nc2ccnn2C(C)C)c1Br"
  MEASUREMENT_TARGET: "Trypanosoma cruzi"
  QUANTITY_MEASURED: "Percent Effect"
  ENDPOINT_VALUE: 8.4
- COMPOUND: "CC(=O)Nc1cc(C(=O)N2CCOCC2c2ccc(C)o2)ccc1F (centres undefined)"
  MEASUREMENT_TARGET: "Trypanosoma cruzi"
  QUANTITY_MEASURED: "Percent Effect"
  ENDPOINT_VALUE: -2.43
- COMPOUND: "CC(C)c1cc(CNC(=O)N2CCC(Cc3cnn(C)c3)C2)on1 (centres undefined)"
  MEASUREMENT_TARGET: "Trypanosoma cruzi"
  QUANTITY_MEASURED: "Percent Effect"
  ENDPOINT_VALUE: 5.92
- COMPOUND: "CCc1nc(C2CCCN2C(=O)CCc2ccc3c(c2)OCO3)no1 (centres undefined)"
  MEASUREMENT_TARGET: "Trypanosoma cruzi"
  QUANTITY_MEASURED: "Percent Effect"
  ENDPOINT_VALUE: 3.62
- COMPOUND: "CNC(=O)CS(=O)(=O)C1CCN(S(=O)(=O)c2c(F)cccc2F)CC1"
  MEASUREMENT_TARGET: "Trypanosoma cruzi"
  QUANTITY_MEASURED: "Percent Effect"
  ENDPOINT_VALUE: 5.68
- COMPOUND: "CCOCCCNC(=O)c1nn(CC)cc1Cl"
  MEASUREMENT_TARGET: "Trypanosoma cruzi"
  QUANTITY_MEASURED: "Percent Effect"
  ENDPOINT_VALUE: 3.14

====

Molecular target: Chromo domain-containing protein 1 (Saccharomyces cerevisiae (strain ATCC 204508 / S288c) (Baker's yeast)) (UniProt P32657)
Sequence (P32657 whole entry, the tested form may be a part): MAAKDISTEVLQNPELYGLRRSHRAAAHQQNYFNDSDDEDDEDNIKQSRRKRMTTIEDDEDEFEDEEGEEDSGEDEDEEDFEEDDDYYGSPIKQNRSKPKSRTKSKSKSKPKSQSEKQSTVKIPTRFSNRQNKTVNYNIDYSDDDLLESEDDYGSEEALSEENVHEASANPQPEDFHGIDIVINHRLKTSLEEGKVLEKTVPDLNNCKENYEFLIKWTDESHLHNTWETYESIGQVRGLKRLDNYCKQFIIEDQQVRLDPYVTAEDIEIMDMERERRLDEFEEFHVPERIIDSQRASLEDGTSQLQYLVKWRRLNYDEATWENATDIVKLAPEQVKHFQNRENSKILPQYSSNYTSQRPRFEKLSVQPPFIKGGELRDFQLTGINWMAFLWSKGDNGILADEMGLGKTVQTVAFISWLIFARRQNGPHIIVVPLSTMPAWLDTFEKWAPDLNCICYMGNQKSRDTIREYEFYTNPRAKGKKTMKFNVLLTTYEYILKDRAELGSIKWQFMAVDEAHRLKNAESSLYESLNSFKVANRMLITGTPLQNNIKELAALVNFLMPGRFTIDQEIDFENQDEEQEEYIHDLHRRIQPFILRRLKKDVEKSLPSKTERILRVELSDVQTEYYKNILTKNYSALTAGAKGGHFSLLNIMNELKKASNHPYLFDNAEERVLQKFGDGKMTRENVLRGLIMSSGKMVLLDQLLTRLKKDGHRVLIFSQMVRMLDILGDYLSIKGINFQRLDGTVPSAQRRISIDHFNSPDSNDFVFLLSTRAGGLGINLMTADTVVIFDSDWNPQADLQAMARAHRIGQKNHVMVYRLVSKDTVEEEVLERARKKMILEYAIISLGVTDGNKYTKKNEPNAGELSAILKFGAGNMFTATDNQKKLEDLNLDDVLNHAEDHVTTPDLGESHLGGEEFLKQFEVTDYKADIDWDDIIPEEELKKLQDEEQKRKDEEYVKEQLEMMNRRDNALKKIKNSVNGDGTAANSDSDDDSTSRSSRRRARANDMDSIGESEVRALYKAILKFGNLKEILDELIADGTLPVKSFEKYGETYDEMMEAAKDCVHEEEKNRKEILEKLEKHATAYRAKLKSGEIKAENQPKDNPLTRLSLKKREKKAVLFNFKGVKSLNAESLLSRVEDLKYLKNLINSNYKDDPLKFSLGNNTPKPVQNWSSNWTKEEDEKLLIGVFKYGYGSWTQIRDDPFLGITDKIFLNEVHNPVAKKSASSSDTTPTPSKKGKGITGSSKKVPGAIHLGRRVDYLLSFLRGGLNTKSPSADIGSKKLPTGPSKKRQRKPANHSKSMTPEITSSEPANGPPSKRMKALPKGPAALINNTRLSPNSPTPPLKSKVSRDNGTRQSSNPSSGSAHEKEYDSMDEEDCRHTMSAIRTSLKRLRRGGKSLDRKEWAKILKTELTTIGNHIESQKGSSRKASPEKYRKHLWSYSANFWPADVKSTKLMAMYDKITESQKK
Experiment: ScCHD-1 Enzyme Inhibition Assay; also: in the data most compounds retested in dose-response had high values
Type: functional
Parameters: scale not given: direction of the effect not stated beside the values
Details: 30 µM

- MOLECULE: "COCc1nc(C(=O)NS(=O)(=O)c2ccc(C)cc2C)cs1"
  Percent Effect (%): -0.274
- MOLECULE: "Cc1n[nH]c(C2CN(C(=O)Cn3ccccc3=O)CCO2)n1 (stereo unspecified)"
  Percent Effect (%): -9.48
- MOLECULE: "O=c1[nH]c(CCN2CCCC(Cn3cncn3)C2)nc2ccccc12 (stereo unspecified)"
  Percent Effect (%): -3.63
- MOLECULE: "Cc1cnn(C2CN(Cc3ccc4c(c3)OCCO4)C2)c1"
  Percent Effect (%): -8.99
- MOLECULE: "CCc1ccc(S(=O)(=O)Nc2cn(C)cc(Br)c2=O)cc1"
  Percent Effect (%): -5.04
- MOLECULE: "COc1ccc(C)cc1CN1CCCC1c1noc(C2CC2)n1 (stereo unspecified)"
  Percent Effect (%): -3.74
